B1: HSP90AB1 (parent)
chain: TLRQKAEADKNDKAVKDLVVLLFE

variants of: B1; test: protein stability index of a GFP-peptide fusion (GPS, HEK-293T) (PSI 1-6); higher = more stable; conditions: c terminus: a fixed tail appended;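 also: lentivirally expressed fusions sorted by FACS into six bins by GFP to DsRed ratio, PSI derived from sequencing read proportions per bin multiplied by bin number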
ASSAY_METRIC: protein stability index

* K5C | 2.85
* K16F | 3.28
* K13D | 2.63
* L22S | 4.34
* E24V | 2.01
* N11R | 3.15
* L18M | 3.29
* T1E | 3.92
* L21R | 3.31
* L18Y | 2.87
* A8V | 3.27
* K5R | 3
* K10E | 2.73
* R3E | 3.17
* E24L | 2.54
* A8N | 3.35
* K13P | 3.22
* V20H | 3.43
* E7V | 2.63
* E24F | 1.83
* T1Q | 3.54
* D17A | 1.99
* K10R | 3.29
* R3W | 2.6
* F23D | 5.38
* V15P | 2.54
* A14V | 2.44
* T1Y | 2.63
* K16T | 2.99
* D9H | 2.95
* V15N | 3.12
* D9N | 2.51
* K16Y | 2.24
* R3D | 3.57
* V19L | 2.68
* D12Q | 2.7
* V19S | 4.08
* K5G | 3.87
* R3N | 3.1
* K16W | 3.02
* Q4H | 2.37
* Q4I | 2.41
* K13C | 2.84
* D12H | 2.56
* T1G | 3.53
* N11V | 2.89
